Each recorded value in this set is attributed to patent US10703756B2.

# target or system: JAK3 enzyme (Homo sapiens, UniProt P52333)
# Sequence (P52333 whole entry, species assumed): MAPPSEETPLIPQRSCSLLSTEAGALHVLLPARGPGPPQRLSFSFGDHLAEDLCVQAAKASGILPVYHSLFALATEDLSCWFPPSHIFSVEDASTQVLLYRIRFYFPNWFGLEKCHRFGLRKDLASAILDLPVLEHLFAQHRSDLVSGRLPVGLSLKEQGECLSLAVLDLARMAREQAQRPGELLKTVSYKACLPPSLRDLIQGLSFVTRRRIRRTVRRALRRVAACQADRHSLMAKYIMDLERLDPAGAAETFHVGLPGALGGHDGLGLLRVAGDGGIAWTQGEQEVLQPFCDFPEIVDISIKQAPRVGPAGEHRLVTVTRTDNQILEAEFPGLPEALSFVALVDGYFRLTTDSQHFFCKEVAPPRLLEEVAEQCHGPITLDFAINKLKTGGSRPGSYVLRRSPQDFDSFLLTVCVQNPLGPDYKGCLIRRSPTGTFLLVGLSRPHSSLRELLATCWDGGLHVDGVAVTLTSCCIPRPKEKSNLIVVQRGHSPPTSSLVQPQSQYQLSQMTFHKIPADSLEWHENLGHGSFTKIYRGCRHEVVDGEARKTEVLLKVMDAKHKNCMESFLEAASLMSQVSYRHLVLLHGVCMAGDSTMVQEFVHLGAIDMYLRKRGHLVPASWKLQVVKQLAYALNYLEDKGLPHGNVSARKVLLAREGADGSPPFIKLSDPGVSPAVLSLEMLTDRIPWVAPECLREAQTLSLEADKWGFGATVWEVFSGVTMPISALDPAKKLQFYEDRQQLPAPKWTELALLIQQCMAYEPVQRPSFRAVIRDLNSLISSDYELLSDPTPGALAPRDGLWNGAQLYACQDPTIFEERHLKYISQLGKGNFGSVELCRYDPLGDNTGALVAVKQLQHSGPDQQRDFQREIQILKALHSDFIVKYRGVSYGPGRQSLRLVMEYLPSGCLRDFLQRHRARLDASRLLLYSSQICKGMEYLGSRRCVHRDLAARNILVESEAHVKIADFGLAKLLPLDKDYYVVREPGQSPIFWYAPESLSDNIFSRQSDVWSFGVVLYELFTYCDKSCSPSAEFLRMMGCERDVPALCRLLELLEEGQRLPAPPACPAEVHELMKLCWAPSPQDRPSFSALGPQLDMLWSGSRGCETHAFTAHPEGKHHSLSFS
# assay overview: JAK Caliper Enzyme Assay at 4 μM ATP
# Assay type: biochemical
# Protocol: Test article was solubilized in dimethyl sulfoxide (DMSO) to a stock concentration of 30 mM. An 11-point half log dilution series was created in DMSO with a top concentration of 600 μM. […] Test article and assay controls were added to a 384-well plate. […] Enzyme concentrations and incubation times were optimized for each new enzyme preps and were modified slightly over time to ensure 20%-30% phosphorylation. […]
assay metric: log10 IC50 (log10 of the value in nM)

>  <compound>
C=CC(=O)N1CCC(Oc2cnc3[nH]cc(C(=O)N[C@@H]4CCC[C@H]4F)c3n2)CC1 [Example 229]

>  <target or system>
JAK3 enzyme (Homo sapiens, UniProt P52333)

>  <measured value>
-0.24

$$$$
>  <compound>
C=CC(=O)N1C[C@H](Nc2cnc3[nH]cc(C(=O)N[C@H](C)COC)c3n2)CC[C@@H]1C (single isomer, unassigned) [Example 69]

>  <target or system>
JAK3 enzyme (Homo sapiens, UniProt P52333)

>  <measured value>
-0.11

$$$$
>  <compound>
C=CC(=O)N1CC[C@H](Nc2cnc3[nH]cc(C(=O)N[C@@H](C)COC)c3n2)C[C@@H]1C (racemic) [Example 353]

>  <target or system>
JAK3 enzyme (Homo sapiens, UniProt P52333)

>  <measured value>
0.17

$$$$
>  <compound>
C=CC(=O)N1CC[C@H](Nc2cnc3[nH]cc(C(=O)NC4CC(F)(F)C4)c3n2)[C@H](OC)C1 [Example 277]

>  <target or system>
JAK3 enzyme (Homo sapiens, UniProt P52333)

>  <measured value>
-0.23

$$$$
>  <compound>
C=CC(=O)N1CC[C@H](Nc2cnc3[nH]cc(C(=O)NCC(F)(F)F)c3n2)C1 (single isomer, unassigned) [Example 254]

>  <target or system>
JAK3 enzyme (Homo sapiens, UniProt P52333)

>  <measured value>
1.24

$$$$
>  <compound>
C=CC(=O)N1C[C@@H](Nc2ncnc3[nH]ccc23)CC[C@H]1CNC(C)=O (single isomer, unassigned) [Example 90]

>  <target or system>
JAK3 enzyme (Homo sapiens, UniProt P52333)

>  <measured value>
0.02

$$$$
>  <compound>
C=CC(=O)N1CCN(c2cnc3[nH]cc(C(=O)NC4CCCC4)c3n2)CC1(C)C [Example 334]

>  <target or system>
JAK3 enzyme (Homo sapiens, UniProt P52333)

>  <measured value>
-0.15

$$$$

* * *

# target or system: JAK3 enzyme (Homo sapiens, UniProt P52333)
# assay overview: JAK Caliper Enzyme Assay at 4 μM ATP
# Assay type: biochemical

>  <compound>
C=CC(=O)N1CCC(C)(Oc2cnc3[nH]cc(C(=O)NCC)c3n2)CC1

>  <value units>
nM

>  <IC50>
3.39

$$$$
>  <compound>
C=CC(=O)N1CC[C@@H](Oc2cnc3[nH]cc(C(=O)NCC)c3n2)[C@H](C)C1 (racemic) [Example 46]

>  <value units>
nM

>  <IC50>
3.38

$$$$
>  <compound>
C=CC(=O)N1CC[C@@H](Nc2cnc3[nH]cc(C(=O)NCC)c3n2)[C@H](OC)C1 (racemic) [Example 25]

>  <value units>
nM

>  <IC50>
1.33

$$$$
>  <compound>
C=CC(=O)N1CC[C@@H](Nc2cnc3[nH]cc(C(=O)NCC)c3n2)C[C@@H]1C (single isomer, unassigned)

>  <value units>
nM

>  <IC50>
0.4

$$$$

* * *

# assay overview: Stability of JAK3 Covalent Inhibitors in Human Whole Blood
# Format: in vitro ADME
# condition description: both sexes, 1 μM test compound, 37° C., 180 min incubation, read-out: Human blood stability t1/2

>  <molecule>
C=CC(=O)N1CC[C@@H](Nc2cnc3[nH]cc(C(=O)NCC)c3n2)C[C@@H]1C (single isomer, unassigned)

>  <qual>
=

>  <half-life at 1 μM, min>
281

$$$$
>  <molecule>
C=CC(=O)N1CCC(Nc2cnc3[nH]cc(C(=O)NCCC)c3n2)CC1

>  <qual>
=

>  <half-life at 1 μM, min>
308

$$$$
>  <molecule>
C=CC(=O)N1CC[C@@H](Oc2cnc3[nH]cc(C(=O)N[C@@H](C)COC)c3n2)C[C@@H]1C (single isomer, unassigned) [Example 73]

>  <qual>
>

>  <half-life at 1 μM, min>
360

$$$$
>  <molecule>
C=CC(=O)N1CC[C@H](Oc2cnc3[nH]cc(C(=O)NCC)c3n2)C[C@H]1C (single isomer, unassigned)

>  <qual>
>

>  <half-life at 1 μM, min>
360

$$$$
>  <molecule>
C=CC(=O)N1C[C@@H](O)C[C@@H](Nc2ncnc3[nH]cc(C#N)c23)C1

>  <qual>
>

>  <half-life at 1 μM, min>
360

$$$$
>  <molecule>
C=CC(=O)N1CCC(Oc2cnc3[nH]cc(-c4ncnn4C(C)C)c3n2)CC1

>  <qual>
=

>  <half-life at 1 μM, min>
147

$$$$
>  <molecule>
C=CC(=O)N1CC[C@H](Nc2cnc3[nH]cc(C(=O)NCC(F)(F)F)c3n2)C1

>  <qual>
=

>  <half-life at 1 μM, min>
321

$$$$
>  <molecule>
C=CC(=O)N1CC[C@H](Oc2cnc3[nH]cc(C(=O)N[C@@H](C)COC)c3n2)C1

>  <qual>
=

>  <half-life at 1 μM, min>
167

$$$$
>  <molecule>
C=CC(=O)N1CC[C@H](Nc2cnc3[nH]cc(C(=O)NCCCC(F)(F)F)c3n2)[C@H](OC)C1

>  <qual>
=

>  <half-life at 1 μM, min>
334

$$$$
>  <molecule>
C=CC(=O)N1CC[C@@H](Oc2cnc3[nH]cc(C(=O)NCC)c3n2)C[C@@H]1C (single isomer, unassigned) [Example 79]

>  <qual>
=

>  <half-life at 1 μM, min>
330

$$$$
>  <molecule>
C=CC(=O)N1CCC(Oc2cnc3[nH]cc(C(=O)NC4CCCC4(F)F)c3n2)CC1 (stereo not drawn)

>  <qual>
=

>  <half-life at 1 μM, min>
243

$$$$
>  <molecule>
C=CC(=O)N1CCC(Oc2cnc3[nH]cc(-c4ncnn4CC)c3n2)CC1

>  <qual>
=

>  <half-life at 1 μM, min>
160

$$$$
>  <molecule>
C=CC(=O)N1CC[C@H](Nc2cnc3c(n2)c(C(=O)NCC)cn3C)C[C@@H]1C (single isomer, unassigned)

>  <qual>
>

>  <half-life at 1 μM, min>
360

$$$$
>  <molecule>
C=CC(=O)N1CC[C@H](Nc2cnc3[nH]cc(C(=O)NCC)c3n2)[C@H](OC)C1

>  <qual>
>

>  <half-life at 1 μM, min>
360

$$$$
>  <molecule>
C=CC(=O)N1CC[C@H](Nc2cnc3[nH]cc(C(=O)NCC(C)CC(F)(F)F)c3n2)[C@H](OC)C1 (mixture of isomers)

>  <qual>
=

>  <half-life at 1 μM, min>
252

$$$$

* * *

# assay overview: Stability of JAK3 Covalent Inhibitors in Human Whole Blood
# Assay type: in vitro ADME
# condition description: both sexes, 1 μM test compound, 37° C., 180 min incubation, read-out: Human blood stability t1/2

>  <compound>
C=CC(=O)N1CC[C@@H](Oc2cnc3[nH]cc(C(=O)NCC)c3n2)C[C@@H]1C (racemic) [Example 77]

>  <value units>
h

>  <qual>
>

>  <half-life at 1 μM>
5.34

$$$$
>  <compound>
C=CC(=O)N1CCC(Oc2cnc3[nH]cc(C(=O)NC(C)(C)CC)c3n2)CC1

>  <value units>
h

>  <qual>
=

>  <half-life at 1 μM>
4.45

$$$$
>  <compound>
C=CC(=O)N1CCC(Nc2cnc3[nH]cc(C(=O)NCc4cccc(F)c4)c3n2)CC1

>  <value units>
h

>  <qual>
=

>  <half-life at 1 μM>
4.85

$$$$
>  <compound>
C=CC(=O)N1CCN(c2cnc3[nH]cc(C(=O)N[C@H](C)COC)c3n2)CC1

>  <value units>
h

>  <qual>
=

>  <half-life at 1 μM>
2.42

$$$$

* * *

# target or system: JAK3 enzyme (Homo sapiens)
# assay overview: JAK Caliper Enzyme Assay at 1 mM ATP
# Type: biochemical
pIC50: −log10 of the molar value.

>  <compound>
C=CC(=O)N1CCC(C)(Nc2cnc3[nH]cc(C(=O)NCC(C)CC(F)(F)F)c3n2)CC1 (racemic)

>  <pIC50>
7.20

$$$$
>  <compound>
C=CC(=O)N1CCC(Oc2cnc3[nH]cc(C(=O)NCC4CC4)c3c2)CC1

>  <pIC50>
5.31

$$$$
>  <compound>
C=CC(=O)N1CCC(C)(Nc2cnc3[nH]cc(C(=O)NC4CCC4)c3n2)CC1

>  <pIC50>
7.68

$$$$
>  <compound>
C=CC(=O)N1C[C@H](Nc2ncnc3[nH]ccc23)CC[C@@H]1COC (single isomer, unassigned)

>  <pIC50>
5.61

$$$$
>  <compound>
C=CC(=O)N1CCC(Oc2cnc3[nH]cc(C(=O)NCCC)c3c2)CC1

>  <pIC50>
5.51

$$$$
>  <compound>
C=CC(=O)N1CCC(Nc2cnc3[nH]cc(C(=O)NCc4ccc(OC)c(F)c4)c3n2)CC1

>  <pIC50>
8.15

$$$$
>  <compound>
C=CC(=O)N1CCN(c2cnc3[nH]cc(C(=O)N[C@H](CC)CC#N)c3n2)CC1

>  <pIC50>
7.59

$$$$
>  <compound>
C=CC(=O)N1CCN(c2cnc3[nH]cc(C(=O)N[C@@H]4COC[C@@H]4c4ccc(F)cc4)c3n2)CC1(C)C (stereo in doubt)

>  <pIC50>
5.72

$$$$
>  <compound>
C=CC(=O)N1CC[C@H](OC)[C@H](Nc2cnc3[nH]cc(C(=O)N[C@H](C)COC)c3n2)C1 (single isomer, unassigned)

>  <pIC50>
5.88

$$$$
>  <compound>
C=CC(=O)N(C)C1CN(c2cnc3[nH]cc(C(=O)N[C@H](C)COC)c3n2)C1

>  <pIC50>
7.03

$$$$
>  <compound>
C=CC(=O)N1CCN(c2cnc3[nH]cc(C(=O)NC(COC)COC)c3n2)CC1(C)C (racemic)

>  <pIC50>
6.42

$$$$
>  <compound>
C=CC(=O)N1CCC(Nc2cnc3[nH]cc(C(=O)NCc4sc(C)nc4C(F)(F)F)c3n2)CC1

>  <pIC50>
8.15

$$$$
>  <compound>
C=CC(=O)N1CC[C@H](Nc2cnc3[nH]cc(C(=O)NCC)c3n2)[C@@H](OC)C1 (single isomer, unassigned)

>  <pIC50>
7.72

$$$$
>  <compound>
C=CC(=O)N1CC[C@H](Nc2cnc3[nH]cc(C(=O)NCC(F)(F)F)c3n2)[C@H](OC)C1

>  <pIC50>
7.29

$$$$
>  <compound>
C=CC(=O)N1C[C@@H](Nc2ncnc3[nH]ccc23)CC[C@@H]1[C@@H](C)O (single isomer, unassigned)

>  <pIC50>
7.11

$$$$
